target: γ-secretase (Homo sapiens); experiment: Aβ secretion by C99 cells (HEK293 stably expressing APP-C99), γ-secretase inhibitory effect, Aβ ELISA of culture supernatant; type: cell-based; details: HEK293, 24 h, Example 9; exposure 0.1 μmol/L; read-out: Aβ (1-40) secretion rate of C99 cells
property: activity at 0.1 µM (%)
Give bare numbers, in %.

Check out these entries, answers already filled in.
{"molecule": "CSCCC(NC(=O)C(NC(=O)C(CC(C)C)CC(O)C(NC(=O)OC(C)(C)C)C(C)O)C(C)C)C(=O)NCc1ccc(F)cc1 (stereo not shown)", "property": "activity at 0.1 µM", "reading": 32}
{"molecule": "CSCCC(NC(=O)C(NC(=O)C(CC(C)C)CC(O)C(NC(=O)OC(C)(C)C)C(C)O)C(C)C)C(=O)NCc1ccccc1 (stereo not shown)", "property": "activity at 0.1 µM", "reading": 39}
{"molecule": "CSCCC(NC(=O)C(NC(=O)C(CC(C)C)CC(O)C(NC(=O)OC(C)(C)C)C(C)O)C(C)C)C(=O)NC(C)c1ccccc1 (stereo not shown)", "property": "activity at 0.1 µM", "reading": 16}

Let us examine a further case.
Incoming: Given the molecule CCCCNC(=O)C(CCSC)NC(=O)C(NC(=O)C(CC(C)C)CC(O)C(NC(=O)OC(C)(C)C)C(C)O)C(C)C (stereo not shown) , what is its reported activity at 0.1 µM?
Outgoing: 42

---

tested on: C99 cells; assay: Cytotoxicity on C99 cells, cell viability by Cell Counting Kit-8; format: cell-based, human; conditions: exposure 1 μmol/L, 24 h
Please provide measured Cell viability of C99 cells for the entries that follow.

Example entries begin here.
{"molecule": "CC(C)C[C@H](NC(=O)[C@H](Cc1ccccc1)C[C@@H](O)[C@H](Cc1ccccc1)NC(=O)OC(C)(C)C)C(=O)N[C@@H](Cc1ccccc1)C(N)=O [L-685, 458, reference compound]", "Cell viability of C99 cells": "125%"}
{"molecule": "CCCCNC(=O)C(CCSC)NC(=O)C(NC(=O)C(CC(C)C)CC(O)C(NC(=O)OC(C)(C)C)C(C)O)C(C)C (centres unmarked)", "Cell viability of C99 cells": "105%"}
{"molecule": "CSCCC(NC(=O)C(NC(=O)C(CC(C)C)CC(O)C(NC(=O)OC(C)(C)C)C(C)O)C(C)C)C(=O)NC(C)c1ccccc1 (centres unmarked)", "Cell viability of C99 cells": "102%"}
{"molecule": "CSCCC(NC(=O)C(NC(=O)C(CC(C)C)CC(O)C(NC(=O)OC(C)(C)C)C(C)O)C(C)C)C(=O)NCc1ccccc1 (centres unmarked)", "Cell viability of C99 cells": "109%"}

Please find the next molecule below.
Incoming: Can you share its Cell viability of C99 cells? I mean this molecule: CSCCC(NC(=O)C(NC(=O)C(CC(C)C)CC(O)C(NC(=O)OC(C)(C)C)C(C)O)C(C)C)C(=O)NCc1ccc(F)cc1 (centres unmarked)
Outgoing: 106%

---

For each of the compounds below, state its Cell viability of C99 cells.
tested on: C99 cells; assay: Cytotoxicity on C99 cells, cell viability by Cell Counting Kit-8; assay type: cell-based, human; settings: exposure 30 μmol/L, 24 h
One number for each entry, in %.

// known answers, use as guide
{"compound": "CCCCNC(=O)C(CCSC)NC(=O)C(NC(=O)C(CC(C)C)CC(O)C(NC(=O)OC(C)(C)C)C(C)O)C(C)C (stereo not shown)", "unitDescriptor": "%", "reading": 91}
{"compound": "CSCCC(NC(=O)C(NC(=O)C(CC(C)C)CC(O)C(NC(=O)OC(C)(C)C)C(C)O)C(C)C)C(=O)NCc1ccc(F)cc1 (stereo not shown)", "unitDescriptor": "%", "reading": 93}
{"compound": "CSCCC(NC(=O)C(NC(=O)C(CC(C)C)CC(O)C(NC(=O)OC(C)(C)C)C(C)O)C(C)C)C(=O)NCc1ccccc1 (stereo not shown)", "unitDescriptor": "%", "reading": 82}

Then this compound:
Incoming: Given the compound CSCCC(NC(=O)C(NC(=O)C(CC(C)C)CC(O)C(NC(=O)OC(C)(C)C)C(C)O)C(C)C)C(=O)NC(C)c1ccccc1 (stereo not shown) , what is its reported Cell viability of C99 cells?
Outgoing: 91
